- target_system: Galectin-3 (Homo sapiens)
- Sequence (P17931 whole entry): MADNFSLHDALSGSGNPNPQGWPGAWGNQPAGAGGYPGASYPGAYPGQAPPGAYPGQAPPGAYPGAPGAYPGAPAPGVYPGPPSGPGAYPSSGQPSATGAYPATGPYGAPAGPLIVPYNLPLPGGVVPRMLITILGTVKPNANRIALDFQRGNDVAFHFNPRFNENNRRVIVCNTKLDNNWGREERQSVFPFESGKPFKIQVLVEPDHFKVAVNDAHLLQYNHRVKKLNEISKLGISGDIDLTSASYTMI
- assay_protocol: fluorescence anisotropy assay, compound as inhibitor of galectin / fluorescein tagged saccharide probe interaction
observable: Kd (nM)

# compound, units_text, Kd
data = [
    ("CO[C@@H]1[C@@H](n2cc(-c3csc(N)n3)nn2)[C@@H](O)[C@@H](CO)O[C@@H]1Sc1cc(Cl)cnc1-c1nccs1 [Example 29]", "nM", 8700),
    ("CCO[C@@H]1[C@@H](n2cc(-c3csc(N)n3)nn2)[C@@H](O)[C@@H](CO)O[C@@H]1Sc1cc(Cl)cnc1C [Example 20]", "nM", 6200),
    ("CCO[C@@H]1[C@@H](n2cc(-c3nc(Cl)cs3)nn2)[C@@H](O)[C@@H](CO)O[C@@H]1Sc1cc(Cl)cnc1C(=O)NC [Example 95]", "nM", 93),
    ("CO[C@@H]1[C@@H](n2cc(-c3nc(Cl)cs3)nn2)[C@@H](O)[C@@H](CO)O[C@@H]1Sc1cc(Br)ccc1C#N [Example 57]", "nM", 140),
]

[A] CO[C@@H]1[C@@H](n2cc(-c3nccs3)nn2)[C@@H](O)[C@@H](CO)O[C@@H]1Sc1cc(Cl)ccc1Cl [Example 66]
[B] CO[C@@H]1[C@@H](n2cc(-c3nc(Cl)cs3)nn2)[C@@H](O)[C@@H](CO)O[C@@H]1Sc1cnc(C#N)c(Br)c1 [Example 12]
Could you determine which record has the numerically smaller Kd? Candidates: A and B Please reply using the label of the selected record.
B

[P] C#Cc1cncc(S[C@H]2O[C@H](CO)[C@H](O)[C@H](n3cc(-c4nc(Cl)cs4)nn3)[C@H]2O)c1 [Example 80]
[Q] CNC(=O)c1ccc(Cl)cc1S[C@H]1OC(CO)[C@H](O)C(n2cc(-c3nccs3)nn2)C1OC (stereo partly shown) [Example 62]
API: POST /compare with P and Q ; response names the item with higher Kd. Please reply using the label of the selected record.
Q
(Q: 3100 nM, P: 360 nM)
